Task for the reader: assign each of the following compounds its reported T/C.
- Tested on: P388 leukemia ip, CD2F1 mice, survival T/C
- ASSAY_TEXT: NCI In Vivo Anticancer Drug Screen. Data for tumor model P388 Leukemia (intraperitoneal) in CD2F1 (CDF1) mice
- EXPERIMENTAL_CONDITIONS: endpoint: median survival time; dose: 200.0 mg/kg/injection; schedule: Q01DX009 (ip); vehicle: Klucel (hydroxypropylcellulose) (HPC); higher = longer survival
Inconclusive results and toxic doses are left out.

Problem: Suppose we examine the compound NS(=O)(=O)c1ccc(NC(=S)S)cc1 ; what T/C value has been reported?
Result: 91 % of control

Problem: Suppose we examine the compound CCCCCCCN1CCS(=O)(=O)CC1 ; what T/C value has been reported?
Result: 97 % of control

Problem: Suppose we examine the compound COc1ccc2c(c1)CCc1nc3n(c1-2)C(O)(c1ccccc1)C(CC(=O)O)S3 (configuration not stated) ; what T/C value has been reported?
Result: 103 % of control

Problem: Suppose we examine the compound COP(=O)(OC)C1(C(C)(C)C)CO1 (configuration not stated) ; what T/C value has been reported?
Result: 94 % of control

Problem: Suppose we examine the compound COc1cc2c(cc1OC)C1CC(=O)C(CCCCCCC3CN4CCc5cc(OC)c(OC)cc5C4CC3=O)CN1CC2 (configuration not stated) ; what T/C value has been reported?
Result: 99 % of control

Problem: Suppose we examine the compound C[N+]1(C)CC[N+](C)(C)CC1 ; what T/C value has been reported?
Result: 110 % of control

Problem: Suppose we examine the compound C/C(=N\NS(=O)(=O)c1ccc(C)cc1)c1cccs1 ; what T/C value has been reported?
Result: 92 % of control

Problem: Suppose we examine the compound CC1CC2C(=S)NC(=O)C(c3ccccc3)=C2O1 (configuration not stated) ; what T/C value has been reported?
Result: 100 % of control

Problem: Suppose we examine the compound C/C(=C\c1ccccc1)C1C(C#N)C(=O)NC(=O)C1C#N (configuration not stated) ; what T/C value has been reported?
Result: 106 % of control

Problem: Suppose we examine the compound O=C(O)c1cc(-c2ccc(O)c(O)c2)nc2cc3ccccc3cc12 ; what T/C value has been reported?
Result: 92 % of control

Problem: Suppose we examine the compound CCn1c2ccccc2c2ccc(N=Cc3ccc(N(C)C)cc3)cc21 ; what T/C value has been reported?
Result: 103 % of control

Problem: Suppose we examine the compound O=C(O)C(S)c1ccc2ccccc2c1 (configuration not stated) ; what T/C value has been reported?
Result: 100 % of control
